# MEASUREMENT NOTES: growth inhibition of wild-type GFP E. coli, dose response, h38 mutant RFP, cherry-pick (AID 977622)
# REPORTED CONDITIONS: 24 h; E. coli mixed culture, total growth OD600 at 50 uM, at 50 µM
In all, about 1,900 compounds went through this assay and fewer than 10 were called active. About 39% were inconclusive and are not listed. Not all results are given here.
READOUT LABEL: activity change (%)
Give the number; % is assumed, so skip it.

C[C@H]1CN([C@@H](C)CO)C(=O)CCCn2nncc2CO[C@@H]1CN(C)Cc1ccccc1C(F)(F)F: -28.1
CCc1ccc(CN2CCCC(CNS(=O)(=O)c3ccc(OC)cc3)C2)cc1 (stereo unspecified): -13.3
COc1ccccc1CC(=O)NCCCc1ccccc1: 0.195

Read the next record carefully.
Report activity change for CC(CCc1ccccc1)NC(=O)CNC(=O)COc1ccccc1 (stereo unspecified) please.
-14.6

----------
# MEASUREMENT NOTES: growth inhibition of wild-type GFP E. coli, dose response, h38 mutant RFP, cherry-pick (AID 977622)
# REPORTED CONDITIONS: 24 h; E. coli mixed culture, total growth OD600 at 50 uM, at 50 µM
Screen size: about 1,900 compounds; fewer than 10 were called active. Not shown: some 39% with an inconclusive outcome. The list is a sample of the results.
READOUT LABEL: activity change (%)
Give the number; % is assumed, so skip it.

Examples with answers:
O=C(c1ccccc1)C1Oc2ccccc2C2CC(c3cccs3)=NN12 (stereo unspecified): -7.77
Cc1ccc(NC(=O)c2ccc3c(c2)OCO3)cc1S(=O)(=O)N1CCOCC1: -35.8
CCOc1ccc(-c2nc(-c3cccs3)c(CC(=O)O)s2)cc1OC: -21.4
CCC1(CC)NC(=O)N(CC(=O)N2N=C(c3ccc(Cl)cc3)CC2c2ccco2)C1=O (stereo unspecified): -19.3
CN1c2ccccc2-c2nc3ccccc3n2C1c1ccncc1 (stereo unspecified): -2.28

Report activity change for NC(=O)c1ccsc1NC(=O)COC(=O)Cc1ccc(F)cc1 please.
-13.5

Follow-up entry: O=C(O)c1ccccc1Nc1cc(Cl)c2nonc2c1[N+](=O)[O-]
-25.7

Follow-up entry: COCc1[nH]nc2c1C(c1ccc3c(c1)OCO3)N(c1ccc(OC)cc1)C2=O (stereo unspecified)
1.74

Follow-up entry: c1ccc(SCc2nc3ccccc3s2)nc1
-3.53

Follow-up entry: OC(COc1ccc(Cl)cc1)CN1CCN(c2ccccn2)CC1 (stereo unspecified)
-8.02

Follow-up entry: C=CCSc1cc(C)nc2c(-c3ccccc3)c(C)nn12
-4.42

----------
# MEASUREMENT NOTES: growth inhibition of wild-type GFP E. coli, dose response, h38 mutant RFP, cherry-pick (AID 977622)
# REPORTED CONDITIONS: 24 h; E. coli mixed culture, total growth OD600 at 50 uM, at 50 µM
Fewer than 10 of roughly 1,900 compounds were called active. Inconclusive results (about 39%) are left out. The list is a sample of the results.
Everything with activity change lower than -10% is No; everything else, including exactly -10%, is Yes.

CCS(=O)(=O)N1CCN(c2ccnc3cc(Cl)ccc23)CC1: Yes

Consider now this further molecule.
Could you tell me if the measured activity change of O=C(NCc1nc2ccccc2[nH]1)c1ccc(S(=O)(=O)N2CCCC2)cc1 reaches -10% or more?
No
